assay: Pharmacokinetics and bioavailability, oral and I.V., in rats (Example 28); assay type: in vivo; conditions: rat, in vivo, iv, 5 mg/kg
reportedEndpoint: clearance (mL/min/kg)
Write it as a number; the unit mL/min/kg goes unstated.

// query // Input: CC(C)CCC[C@@H](C)[C@H]1CC[C@H]2[C@@H]3C[C@@H](NCCc4c[nH]cn4)[C@@]4(O)C[C@@H](F)CC[C@]4(C)[C@H]3CC[C@]12C . Output its clearance only.
// result 25

----------
test system: murine 4T1 mammary tumor cells; assay: Cell viability of 4T1 cells, MTT; format: cell-based; conditions: Mus musculus; 4T1, MTT, 48 h; read-out: IC50
reportedEndpoint: IC50 (µM)
Write it as a number; the unit µM goes unstated.

Some solved cases for reference:
>  <molecule>
CC(C)CCC[C@@H](C)[C@H]1CC[C@H]2[C@@H]3C[C@@H](NCCc4c[nH]cn4)[C@@]4(O)C[C@@H](F)CC[C@]4(C)[C@H]3CC[C@]12C

>  <systemName>
murine 4T1 mammary tumor cells

>  <testValue>
1.69

$$$$
>  <molecule>
CC(=O)N[C@H]1CC[C@]2(C)[C@H]3CC[C@]4(C)[C@@H]([C@H](C)CCCC(C)C)CC[C@H]4[C@@H]3C[C@@H](NCCc3c[nH]cn3)[C@@]2(O)C1

>  <systemName>
murine 4T1 mammary tumor cells

>  <testValue>
11.7

$$$$
>  <molecule>
CC(C)CCC[C@@H](C)[C@H]1CC[C@H]2[C@@H]3C[C@@H](NCCc4c[nH]cn4)[C@@]4(O)C[C@@H](O)CC[C@]4(C)[C@H]3CC[C@]12C [DX101, reference compound]

>  <systemName>
murine 4T1 mammary tumor cells

>  <testValue>
4.4

$$$$

Please find the next molecule below.
// query State recorded IC50 with murine 4T1 mammary tumor cells, entry CC(C)CCC[C@@H](C)[C@H]1CC[C@H]2[C@@H]3C[C@@H](NCCc4c[nH]cn4)[C@@]4(O)C[C@@H](S(C)(=O)=O)CC[C@]4(C)[C@H]3CC[C@]12C , no comment.
// result 15.1

----------
assay: Pharmacokinetics and bioavailability, oral and I.V., in rats (Example 28); assay type: in vivo; details: plasma; rat, po, 50 mg/kg; read-out: T½ 2nd phase (converted)
reportedEndpoint: half-life (h)
Write it as a number; the unit h goes unstated.

// query // Input: CC(C)CCC[C@@H](C)[C@H]1CC[C@H]2[C@@H]3C[C@@H](NCCc4c[nH]cn4)[C@@]4(O)C[C@@H](O)CC[C@]4(C)[C@H]3CC[C@]12C [DX101, reference compound] . Output its half-life only.
// result 39

----------
Below, each of the molecules is paired with its reported Time for Cmax value.
assay: Oral pharmacokinetic study in rat, LC/MS assay in plasma (Examples 21-24); format: in vivo; conditions: in vivo, po, 50 mg/kg

Some solved cases for reference:
>  <smi>
CC(C)CCC[C@@H](C)[C@H]1CC[C@H]2[C@@H]3C[C@@H](NCCc4c[nH]cn4)[C@@]4(O)C[C@@H](N=[N+]=[N-])CC[C@]4(C)[C@H]3CC[C@]12C

>  <reportedEndpoint>
Time for Cmax

>  <testValue>
4 min

$$$$
>  <smi>
CC(C)CCC[C@@H](C)[C@H]1CC[C@H]2[C@@H]3C[C@@H](NCCc4c[nH]cn4)[C@@]4(O)C[C@@H](F)CC[C@]4(C)[C@H]3CC[C@]12C

>  <reportedEndpoint>
Time for Cmax

>  <testValue>
240 min

$$$$
>  <smi>
CCO[C@H]1CC[C@]2(C)[C@H]3CC[C@]4(C)[C@@H]([C@H](C)CCCC(C)C)CC[C@H]4[C@@H]3C[C@@H](NCCc3c[nH]cn3)[C@@]2(O)C1

>  <reportedEndpoint>
Time for Cmax

>  <testValue>
240 min

$$$$

// query // Input: CO[C@H]1CC[C@]2(C)[C@H]3CC[C@]4(C)[C@@H]([C@H](C)CCCC(C)C)CC[C@H]4[C@@H]3C[C@@H](NCCc3c[nH]cn3)[C@@]2(O)C1 . Output its Time for Cmax only.
// result 240 min
